B1: HDV Ribozyme (parent)
chain: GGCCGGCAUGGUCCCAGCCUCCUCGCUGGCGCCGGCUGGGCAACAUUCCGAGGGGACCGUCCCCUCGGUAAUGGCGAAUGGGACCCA

Variants of: B1
measurement protocol: self-cleavage, relative activity (ratio to wild type); higher = more cleavage; co-transcriptional
observation type: self-cleavage

   mutations  result
0   U9G G34C   0.175
1  U65G G81U   0.248
2  C13A A78C  0.0297

Challenge: Quick one: self-cleavage of G38U U79C ?
Response given: 0.112

Challenge: // query self-cleavage value for entry G5C C21G
Response given: 0.125

Challenge: Sample C13A A51C — what was its self-cleavage?
Response given: 0.0898
